Catalogue of cell viability values
Tested on: NOMO1
experimentDescription: cell viability relative to DMSO control; higher = less cytotoxic
assayConditions: RPMI 5 mM glucose + 10% FBS; 48 h; 46.1 µM
The reply should contain only the number, in %.

compound: COc1ccc2[nH]c([S+]([O-])Cc3ncc(C)c(OC)c3C)nc2c1 (stereo not given)
cell viability / %: 89.1

Could you now look at the following compound, please?
Lookup: Under NOMO1: cell viability value of O=C(Oc1ccc([N+](=O)[O-])cc1)N1CCC(C(O)(c2ccc3c(c2)OCO3)c2ccc3c(c2)OCO3)CC1 ?
Found: 89.2

----------
Tested on: P12-Ichikawa
experimentDescription: cell viability relative to DMSO control; higher = less cytotoxic
assayConditions: RPMI 5 mM glucose + 10% FBS; 48 h; 0.19 µM
measuredMetric: cell viability (%)
Use % as the unit, but write only the number.

compound: CN1CCC[C@@H]1CCO[C@](C)(c1ccccc1)c1ccc(Cl)cc1
targetEntity: P12-Ichikawa
measuredResult: 98.1

compound: COc1cc([C@H]2Oc3cc([C@H]4Oc5cc(O)cc(O)c5C(=O)[C@@H]4O)ccc3O[C@@H]2CO)ccc1O
targetEntity: P12-Ichikawa
measuredResult: 104

compound: Nc1cc(C(F)(F)F)c(-c2cc(N3CCOCC3)nc(N3CCOCC3)n2)cn1
targetEntity: P12-Ichikawa
measuredResult: 126

compound: C[C@]12CC[C@@H]3c4ccc(O)cc4CC[C@H]3[C@@H]1C[C@@H](O)[C@@H]2O
targetEntity: P12-Ichikawa
measuredResult: 129

compound: COc1cccc([C@@H](C)NCCCc2ccccc2Cl)c1
targetEntity: P12-Ichikawa
measuredResult: 91.9

Please turn your attention to the following entry.
Lookup: What does the data say about its cell viability? Entry: Nc1nc(N)c2nc(-c3cccc(O)c3)c(-c3cccc(O)c3)nc2n1
Found: 112

----------
Listed below: AUC of viability dose-response curve values for each entry.
System: NOMO1
experimentDescription: AUC of viability dose-response curve (% viability x log10 dose units); higher = less sensitive
assayConditions: HPLM + 10% dialyzed FBS; 48 h

Previously resolved entries follow.
inputSmiles: c1ccc(CNc2nc(N3CCOc4ccccc43)nc3c2CCCC3)cc1
targetEntity: NOMO1
AUC of viability dose-response curve: 468
--
inputSmiles: COc1ncnc(N[S+](=O)([O-])c2ccc(N)cc2)c1OC
targetEntity: NOMO1
AUC of viability dose-response curve: 348
--
inputSmiles: CC(=O)NCCC(=O)N[C@@H](CCC(N)=O)C(=O)N[C@@H](CO)C(=O)N[C@@H](CCC(N)=O)C(=O)N[C@@H](CCC(N)=O)C(=O)N[C@H](C(=O)N[C@@H](Cc1ccccc1)C(=O)N[C@]1(C)CCCCCC/C=C\CCC[C@@](C)(C(=O)N[C@@H](CCC(N)=O)C(=O)N[C@@H](CC(N)=O)C(N)=O)NC(=O)[C@H](CC(C)C)NC(=O)[C@H](CC(C)C)NC(=O)[C@@H](CCCNC(=N)N)NC(=O)[C@H](Cc2c[nH]c3ccccc23)NC(=O)[C@H](CC(C)C)NC(=O)[C@H](CC(N)=O)NC1=O)[C@H](C)O
targetEntity: NOMO1
AUC of viability dose-response curve: 456
--
inputSmiles: CCOC(=O)c1cncn1[C@H](C)c1ccccc1
targetEntity: NOMO1
AUC of viability dose-response curve: 443

Lookup: Fill blank: measured AUC of viability dose-response curve of the compound CCN(CC)CCCCNc1ncc2c(n1)N(C)C(=O)N(c1c(Cl)c(OC)cc(OC)c1Cl)C2 is ____.
Found: 429

Lookup: Consider the compound Cc1cncc2cccc([S+](=O)([O-])N3CCCN(C(=O)CN)C[C@@H]3C)c12 and give its measured AUC of viability dose-response curve.
Found: 455
